The measurements presented in this section are drawn from ChEMBL document CHEMBL1201862.

- system name: Ataxin-2 (Homo sapiens)
- assay text: qHTS for Inhibitors of ATXN expression.
- Format: functional
The whole screen tested about 400,000 compounds, of which about 2,100 (0.53%) were called active. Another 14% or so got no clear call; they are omitted. Shown is part of a subset that was picked to be rich in actives.
result type: Potency

Quick request: Potency for each listed item, please.
1. CCCCCCn1c(=O)n2n(c1=O)[C@@H]1CN(S(=O)(=O)c3ccc(C)cc3)C[C@]1(O)[C@@H](OC(=O)NCc1ccccc1)C2
2. COc1ccc(-n2nc3c(N4CCCC(C(=O)NCc5cccc(F)c5)C4)nnc(C)c3c2C)cc1 (centres undefined)

OUT:
["28.2 µM (active)", "20 µM (active)"]

Go through the list and state Potency for each entry.
1. COc1ccc(-n2nc3c(N4CCCC(C(=O)NCc5ccc(C)cc5)C4)nnc(C)c3c2C)cc1 (centres undefined)
2. CCCCCCn1c(=O)n2n(c1=O)[C@@H]1CN(S(=O)(=O)c3ccc(C)cc3)C[C@]1(O)[C@@H](OC(=O)NCc1ccccc1F)C2

OUT:
1. 17.8 µM (active)
2. 35.5 µM (active)
